# EXPERIMENT: In vitro release from rings of varying core length and apparent/standard k value (Crank's equation)
# Assay type: physicochemical
# Design: unit not given here
# EXPERIMENTAL_CONDITIONS: Table 4; core length 35 mm, 1.0% (w/v) BKC
VALUE_TYPE: Standard k

Example results:
CCC(=O)O[C@H]1CC[C@H]2[C@@H]3CCc4cc(O)ccc4[C@H]3CC[C@]12C	1.842
CC(=O)O[C@H]1CC[C@H]2[C@@H]3CCc4cc(O)ccc4[C@H]3CC[C@]12C	0.838

Ask: Return reported Standard k; argument: CCC(=O)Oc1ccc2c(c1)CC[C@@H]1[C@@H]2CC[C@]2(C)[C@@H](O)CC[C@@H]12
Result: 12.89

Ask: Here is the next molecule: CC(=O)Oc1ccc2c(c1)CC[C@@H]1[C@@H]2CC[C@]2(C)[C@@H](O)CC[C@@H]12 [17β-oestradiol-3-acetate]
Result: 10.017

====

# EXPERIMENT: In vitro release from rings of varying core length and apparent/standard k value (Crank's equation)
# Assay type: physicochemical
# EXPERIMENTAL_CONDITIONS: Table 4; 1.0% (w/v) BKC, core length 35 mm, n = 5
Reported Mean Daily Release is given for each of the following molecules.
Kindly provide the numeric value in µg/day only, without the unit symbol.

// below: answered molecules
CCC(=O)O[C@H]1CC[C@H]2[C@@H]3CCc4cc(O)ccc4[C@H]3CC[C@]12C	42.86
CC(=O)O[C@H]1CC[C@H]2[C@@H]3CCc4cc(O)ccc4[C@H]3CC[C@]12C	19.50
CC(=O)Oc1ccc2c(c1)CC[C@@H]1[C@@H]2CC[C@]2(C)[C@@H](O)CC[C@@H]12 [17β-oestradiol-3-acetate]	236.66

Ask: Which Mean Daily Release value is on record for CCC(=O)Oc1ccc2c(c1)CC[C@@H]1[C@@H]2CC[C@]2(C)[C@@H](O)CC[C@@H]12 ?
Result: 300.00

====

# EXPERIMENT: In vitro dissolution: mean daily release from full-length-core rings over up to 90 days in three media
# Type: physicochemical
# EXPERIMENTAL_CONDITIONS: 0.133% (w/v) BKC; 9 × 54 mm ring, core 141 × 2 mm, 37 °C, N = 4
Some compounds, each annotated with its measured Mean Daily Release.
Enter your answer as a number in μg per day; do not include the unit.

As a guide, the following entries are already answered.
CCCCC(=O)O[C@H]1CC[C@H]2[C@@H]3CCc4cc(O)ccc4[C@H]3CC[C@]12C [17β-oestradiol-17-valerate, reference compound]	365
CC(=O)Oc1ccc2c(c1)CC[C@@H]1[C@@H]2CC[C@]2(C)[C@@H](O)CC[C@@H]12 [17β-oestradiol-3-acetate]	700
CCC(=O)O[C@H]1CC[C@H]2[C@@H]3CCc4cc(O)ccc4[C@H]3CC[C@]12C	112

Next compound, Mean Daily Release to be filled in.
Ask: Looking for the measured Mean Daily Release of C[C@]12CC[C@@H]3c4ccc(OC(=O)c5ccccc5)cc4CC[C@H]3[C@@H]1CC[C@@H]2O [reference compound] , can you help?
Result: 42

====

# EXPERIMENT: In vitro plasma hydrolysis (stability in human blood at 37 °C)
VALUE_TYPE: half-life (h)
Report only the number, with the unit h understood.

Ask: # lookup: half-life of CC(=O)O[C@H]1CC[C@H]2[C@@H]3CCc4cc(O)ccc4[C@H]3CC[C@]12C
Result: 4
